test system: HCT116; test: cell viability (CellTiter-Glo) relative to plate median (fraction of plate median); higher = more viable cells; settings: 5 µM; treatment time 24 h; reporter: TCF4/Wnt
cell viability strictly under 1 means true (1); at 1 or over means false (0).

compound: COc1ccccc1OCCNCC(O)COc1cccc2[nH]c3ccccc3c12 (configuration not stated)
system-name: HCT116
label-value: false (0)

For this compound, is cell viability lower than 1? C/C1=C\CCC(=O)C2CC(C)(C)C2CC1 (configuration not stated)
true (1)

And for `CCOC(=O)c1c(C)cc(O)c(C=O)c1O` ?
false (0)

Moving on to `Cc1ccc(S(=O)(=O)NC(=O)NN2CCCCCC2)cc1`
true (1)

Try `CNCCCN1c2ccccc2CCc2ccccc21` next.
true (1)

Consider next the compound `CCOC(=O)n1ccn(C)c1=S` in the same way.
false (0)

---

system: SW480; experiment: cell viability (CellTiter-Glo) relative to plate median (fraction of plate median); higher = more viable cells; settings: 5 µM; treatment time 24 h; reporter: 7TFP
Exam item: assign yes to entries whose cell viability is below 1 and no to entries at or above 1. Note that a value of exactly 1 receives no.

Worked examples follow.
molecule: CC(=O)Nc1c(I)cc(I)c(C(=O)O)c1I
label-value: yes

molecule: CCCCCC/C=C\CCCCCCCc1cccc(O)c1C(=O)O
label-value: no

molecule: CC(=O)O[C@H]1CC[C@]2(C)[C@H]3CC=C4[C@@H]5CC(C)(C)CC[C@]5(C)CC[C@@]4(C)[C@]3(C)CC[C@H]2C1(C)C [beta-AMYRIN ACETATE]
label-value: no

molecule: Nc1ncnc2c1ncn2[C@@H]1O[C@H](CO)[C@@H](O)[C@H]1O
label-value: no

Now consider a different molecule.
cell viability strictly < 1 for this molecule? `Cc1nnc(SCC2=C(C(=O)O)N3C(=O)[C@@H](NC(=O)Cn4cnnn4)[C@H]3SC2)s1`
yes

---

test system: SW480; test: cell viability (CellTiter-Glo) relative to plate median (fraction of plate median); higher = more viable cells; settings: 5 µM; treatment time 24 h; reporter: 7TFP
Assign labels as follows, please: y for cell viability below 1; n for cell viability equal to or exceeding 1.

molecule: CNC[C@H](O)c1ccc(O)c(O)c1
system-name: SW480
label-value: y

Regarding CCCCCC[C@H]1CC[C@@](O)([C@@](C)(O)C(=O)N[C@@H]2C(=O)N3NCCC[C@@H]3C(=O)N(O)[C@@H](COC)C(=O)NCC(=O)N3NCCC[C@H]3C(=O)N(O)[C@H](C)C(=O)O[C@H]2C)OC1C (stereo partly drawn) , kindly confirm whether its cell viability is beneath 1.
n

Okay, and `CC(C)[C@H](NC(=O)[C@@H]1CCCN1)C(=O)N1CCNC(=O)C1=O` ?
n

Repeat for the following molecule: `COc1c(-c2ccccc2)oc2c(ccc3occc32)c1=O`
n

Can you check `CN1CCCN=C1/C=C/c1cccs1` next?
n

---

List of cell viability values.
tested on: HCT116; experiment: cell viability (CellTiter-Glo) relative to plate median (fraction of plate median); higher = more viable cells; details: 5 µM; treatment time 24 h; reporter: TCF4/Wnt
API note: the answer field is a bare number with no unit suffix.

Example entries begin here.
molecule: Cc1cn[nH]c1
system-name: HCT116
cell viability: 0.939
--
molecule: CCC(C)C(=O)OC1[C@@H]2CC3=C4CC(=O)O[C@@H](c5ccoc5)[C@]4(C)CCC3[C@@](C)(C2=O)[C@@H](CC(=O)OC)C1(C)C (stereo not given in full)
system-name: HCT116
cell viability: 1.19
--
molecule: Nc1[nH]cnc2ncnc1-2
system-name: HCT116
cell viability: 1.1
--
molecule: CC[C@H](C)[C@H](N)C1=N[C@H](C(=O)N[C@@H](CC(C)C)C(=O)N[C@H](CCC(=O)O)C(=O)N[C@H](C(=O)N[C@H]2CCCCNC(=O)[C@H](CC(N)=O)NC(=O)[C@@H](CC(=O)O)NC(=O)[C@H](Cc3cnc[nH]3)NC(=O)[C@@H](Cc3ccccc3)NC(=O)[C@H]([C@@H](C)CC)NC(=O)[C@@H](CCCN)NC2=O)[C@@H](C)CC)CS1
system-name: HCT116
cell viability: 1.03

We next turn to a different molecule, shown below.
Please report the recorded cell viability for `O=c1oc2ccccc2cc1O` .
0.955
